Reference source for all entries: paper PMC9667546

Tested on: WA-C3CD5+ cells (CLL)
Test: Cell viability assay (CellTiter-Glo), WA-C3CD5+
Assay type: cell-based
Conditions: 72 h, n = 3
measure: pIC50
Numbers only, as −log10 of the molar value.

Q. Give reported pIC50 value for `C=CC(=O)Nc1cc(C)cc(-n2c(=O)ccc3cnc4ccc(-c5ccc(NS(C)(=O)=O)cc5)cc4c32)c1`
A. 5.46

----------
Target: BTK (Homo sapiens)
Sequence (Q06187 whole entry): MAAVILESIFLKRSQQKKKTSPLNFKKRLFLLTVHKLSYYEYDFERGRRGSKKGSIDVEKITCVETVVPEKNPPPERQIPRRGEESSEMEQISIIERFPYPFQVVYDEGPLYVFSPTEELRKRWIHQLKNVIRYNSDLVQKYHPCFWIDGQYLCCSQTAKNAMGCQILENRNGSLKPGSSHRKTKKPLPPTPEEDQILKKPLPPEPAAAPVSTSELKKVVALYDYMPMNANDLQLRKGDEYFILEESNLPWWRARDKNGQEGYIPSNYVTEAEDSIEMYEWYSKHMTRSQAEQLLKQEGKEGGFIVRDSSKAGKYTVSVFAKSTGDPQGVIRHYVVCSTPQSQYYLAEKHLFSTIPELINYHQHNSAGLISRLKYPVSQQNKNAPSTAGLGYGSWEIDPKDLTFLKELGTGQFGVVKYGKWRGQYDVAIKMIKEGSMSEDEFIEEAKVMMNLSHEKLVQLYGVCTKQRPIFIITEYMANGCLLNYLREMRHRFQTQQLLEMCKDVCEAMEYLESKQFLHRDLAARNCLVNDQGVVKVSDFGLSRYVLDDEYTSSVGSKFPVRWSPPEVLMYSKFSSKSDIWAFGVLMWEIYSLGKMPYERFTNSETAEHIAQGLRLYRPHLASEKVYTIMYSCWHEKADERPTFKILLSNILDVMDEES
Assay: NanoBRET in-cell target engagement, BTK
Type: binding
Parameters: purchased Promega Corporation V2941
Conditions: NanoBRET value as given in text and Table S3; read-out: IC50, BTK
measure: pIC50
Give bare numbers, as −log10 of the molar value.

Q. Give pIC50 only, for `C=CC(=O)Nc1cc(C)cc(-n2c(=O)ccc3cnc4ccc(-c5ccc(NS(C)(=O)=O)cc5)cc4c32)c1` , using BTK (Homo sapiens) data.
A. 7.55
